# System: UniProt:A0A0A1EQY0
# Sequence (A0A0A1EQY0 1-364): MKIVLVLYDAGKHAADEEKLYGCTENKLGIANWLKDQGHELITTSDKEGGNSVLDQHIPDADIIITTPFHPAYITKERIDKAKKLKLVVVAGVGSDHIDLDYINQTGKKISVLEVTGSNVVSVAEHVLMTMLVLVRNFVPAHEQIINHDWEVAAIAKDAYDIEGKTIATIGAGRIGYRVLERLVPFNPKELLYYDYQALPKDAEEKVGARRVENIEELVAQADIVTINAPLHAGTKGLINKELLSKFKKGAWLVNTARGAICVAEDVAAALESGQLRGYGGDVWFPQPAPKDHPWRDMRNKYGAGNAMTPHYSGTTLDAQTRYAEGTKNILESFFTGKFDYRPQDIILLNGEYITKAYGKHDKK
# Method Summary: ITC and crystal structure of the ternary complex with azide at […] Å
Quantity: Kd (µM)
Number only, in µM; omit the unit.

Respond only with Kd recorded for NC(=O)c1ccc[n+]([C@@H]2O[C@H](COP(=O)([O-])OP(=O)(O)OC[C@H]3O[C@@H](n4cnc5c(N)ncnc54)[C@H](O)[C@@H]3O)[C@@H](O)[C@H]2O)c1
92
